targetEntity: cynomolgus IL-36R on BaF/3 cells (cynomolgus, UniProt A0A2K5WSK9 20-558)
Sequence (A0A2K5WSK9 entry or part of it): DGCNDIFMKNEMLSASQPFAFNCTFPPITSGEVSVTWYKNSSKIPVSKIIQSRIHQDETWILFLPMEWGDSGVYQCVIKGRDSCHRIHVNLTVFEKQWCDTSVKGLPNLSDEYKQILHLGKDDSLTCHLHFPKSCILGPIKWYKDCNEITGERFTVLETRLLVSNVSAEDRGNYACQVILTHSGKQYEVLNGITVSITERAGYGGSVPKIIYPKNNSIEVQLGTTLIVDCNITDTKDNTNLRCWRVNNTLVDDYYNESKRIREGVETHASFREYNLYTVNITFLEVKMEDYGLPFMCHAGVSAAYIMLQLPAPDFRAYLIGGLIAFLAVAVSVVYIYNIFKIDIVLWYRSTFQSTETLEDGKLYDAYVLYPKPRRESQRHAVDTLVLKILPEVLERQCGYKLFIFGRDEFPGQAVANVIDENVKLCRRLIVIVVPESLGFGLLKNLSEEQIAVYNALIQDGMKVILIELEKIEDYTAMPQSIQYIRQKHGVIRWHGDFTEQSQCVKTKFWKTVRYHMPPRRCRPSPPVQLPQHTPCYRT
assayExplanation: cell-based or functional assay
# reported IC90, pNFκB, BaF/3 cynomolgus IL-36R cells, trun-IL-36g; entries follow
propertyMeasured: IC90, pNFκB, BaF/3 cynomolgus IL-36R cells, trun-IL-36g

{"columns": ["binder", "readoutValue"],
 "data": [
  ["antibody 89A12 (antibody, V domains shown, Mouse monoclonal from hybridoma; also called 89A12B8) VH: EVQLQQSGAELVRPGASVRLSCTASGFNIKDDYIHWVRQRPKQGLEWLGRIDPANGNTKYDPRFQDKATITADTSSNTAYLHLSSLTSEDTAVYYCAKSFPDNYYSYDDAFAYWGQGTLVTVSA VL: DIQMTQSPASQSASLGESVTFSCLASQTIGTWLGWYQQKPGKSPQLLIYRATSLADGVPSRFSGSGSGTNFSFKISSLQAEDLASYYCQQLYSGPYTFGGGTKLEIR", "> 333 nM"],
  ["antibody 67E7 (antibody, V domains shown, Mouse monoclonal from hybridoma; also called 67E7E8) VH: EVQLQQSGAEFVRPGASVKFSCTASGFNIKDDYIHWVRQRPEQGLEWVGRIDPANGNTKYAPKFQDKATITADTSSNTAYLQLSSLTSEDTAVYYCAKSFPNNYYSYDDAFAYWGQGTLVTVSA VL: DIQMTQSPASQSASLGESVTFTCLASQTIGTWLGWYQQKPGKSPQLLIYRSTTLADGVPSRFSGSGSGTKFSFKISSLQAADFASYYCQQLYSAPYTFGGGTKLEIR", "> 333 nM"],
  ["antibody 81B4 (antibody, V domains shown, Mouse monoclonal from hybridoma; also called 81B4E11; Mouse 81B4) VH: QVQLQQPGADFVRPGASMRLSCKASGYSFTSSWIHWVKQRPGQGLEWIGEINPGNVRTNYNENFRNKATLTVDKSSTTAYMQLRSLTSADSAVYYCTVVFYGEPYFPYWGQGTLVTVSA VL: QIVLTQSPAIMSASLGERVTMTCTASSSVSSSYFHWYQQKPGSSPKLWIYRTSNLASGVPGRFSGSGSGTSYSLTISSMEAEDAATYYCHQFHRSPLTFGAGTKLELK", "5.1 nM"],
  ["antibody 172C8 (antibody, V domains shown, Mouse monoclonal from hybridoma; also called 172C8B12) VH: EVQLQQSGPELVKPGASVKLSCKASGYTFTDNYMNWVRQSHGKSLEWIGRVNPSNGDTKYNQNFKGKATLTVDKSLSTAYMQLNGLTSEDSAVYYCGRTKNFYSSYSYDDAMDYWGQGTSVTVSS VL: DIQMTQSPASQSASLGESVTFTCLASQTIGTWLAWYQQRPGKSPQLLIYAATSLADGVPSRFSGSGSGTQFSFNIRSLQAEDFASYYCQQVYTTPLTFGGGTKLEIK", "> 333 nM"],
  ["antibody 33D10 (antibody, V domains shown, Mouse monoclonal from hybridoma; also called 33D10B12; Mouse 33D10) VH: QVQLQQSGTELLKPGASVKLSCKASGNTVTSYWMHWVKQRPGQGLEWIGEILPSTGRTNYNENFKGKAMLTVDKSSSTAYMQLSSLASEDSAVYYCTIVYFGNPWFAYWGQGTLVTVSA VL: QIVLTQSPAIMSASLGERVTMTCTASSSVSSSYLHWYQKKPGSSPKLWVYSTSNLASGVPVRFSGSGSGTSYSLTISSMEAEDAATYYCHQHHRSPVTFGSGTKLEMK", "> 333 nM"]
]}

Hello, the source for this data is patent US20200231684A1, in case you need it.
